Known 24-h% Mean Mortality ± SEM, Synergist Alone of a selection of compounds
# Tested on: Aedes aegypti
# MEASUREMENT_SETUP: 2 μg applied
ENDPOINT_NAME: 24-h% Mean Mortality ± SEM, Synergist Alone (%)

| COMPOUND | ENDPOINT_RESULT |
| --- | --- |
| CC(C)[C@@H]1CC[C@@H](C)CC1=O [Menthone, L-menthone] | 5 |
| C=C(C)[C@@H]1CC=C(C)C(=O)C1 [Carvone, L-carvone] | 5 |
| CCCCOCCOCCOCc1cc2c(cc1CCC)OCO2 [PBO, piperonyl butoxide, reference compound] | 12.5 |
| CC12CCC(C1)C(C)(C)C2=O [Fenchone, L-fenchone] | 2.5 |
